Hey, just so you know, these numbers are from patent US20150086555A1.

Molecular target: recombinant soluble homotrimeric HA, A/Japan/305/57 H2N2 (Influenza A virus A/Japan/305/1957(H2N2))
Experiment: microarray, transfection SN IgG, trimeric HA
Conditions: remark: other sources report otherwise
ENDPOINT LABEL: log10 Trimeric HA Binding: RLU (log10 of the value in RLU)
Lab note - Trimeric HA Binding: RLU converted to log10 from values in RLU.

Input: What does the data say about its log10 Trimeric HA Binding: RLU? Entry: TCN-551 (5243_D01) (antibody, V domains shown) VH: EVQLVQSGSEVKKPGESLKISCKGSGYSFSNYWIGWVRHMPGKGLEWMGIIYPGDSDTRYSPSFQGQVTMSADKSSSTVYLQWSSLKASDTAIYYCARRGGHSFGYGSGGDTHSEFDSWGQGTLVTVSS VL: QSVLTQSPSVSAAPGQKVTISCSGSDSNIGDYFVCWYQHLPGKPPQLLIYENNKRPSGIPDRFSGSKSGTSATLGITGIQTGDEADYYCATWDGSLSAWVFGGGTKLTVL
Output: 4.40

Input: What does the data say about its log10 Trimeric HA Binding: RLU? Entry: TCN-553 (5261_C18) (antibody, V domains shown) VH: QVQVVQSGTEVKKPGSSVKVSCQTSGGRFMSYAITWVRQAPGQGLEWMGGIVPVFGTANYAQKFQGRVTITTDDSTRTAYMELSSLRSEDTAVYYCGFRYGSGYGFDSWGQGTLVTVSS VL: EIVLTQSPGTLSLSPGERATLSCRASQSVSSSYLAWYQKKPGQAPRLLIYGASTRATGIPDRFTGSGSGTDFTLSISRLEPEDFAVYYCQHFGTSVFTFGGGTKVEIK
Output: 4.60

Input: What does the data say about its log10 Trimeric HA Binding: RLU? Entry: TCN-504 (3251_K17) (antibody, V domains shown) VH: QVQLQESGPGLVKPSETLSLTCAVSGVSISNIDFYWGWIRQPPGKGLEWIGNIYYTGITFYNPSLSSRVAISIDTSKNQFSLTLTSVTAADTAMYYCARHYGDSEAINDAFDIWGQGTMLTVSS VL: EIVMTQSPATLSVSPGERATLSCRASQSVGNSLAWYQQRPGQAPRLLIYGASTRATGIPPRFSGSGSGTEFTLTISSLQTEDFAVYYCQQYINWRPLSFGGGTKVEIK
Output: 4.37

Input: What does the data say about its log10 Trimeric HA Binding: RLU? Entry: TCN-555 (5246_L16) (antibody, V domains shown) VH: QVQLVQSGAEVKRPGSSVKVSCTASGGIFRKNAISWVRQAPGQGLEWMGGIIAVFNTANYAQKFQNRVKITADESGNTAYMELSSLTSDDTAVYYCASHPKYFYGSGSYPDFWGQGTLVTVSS VL: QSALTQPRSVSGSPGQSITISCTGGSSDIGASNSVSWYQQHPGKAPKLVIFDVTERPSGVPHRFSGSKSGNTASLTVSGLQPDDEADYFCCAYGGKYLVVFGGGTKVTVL
Output: 4.22

Input: What does the data say about its log10 Trimeric HA Binding: RLU? Entry: TCN-557 (5081_A04) (antibody, V domains shown) VH: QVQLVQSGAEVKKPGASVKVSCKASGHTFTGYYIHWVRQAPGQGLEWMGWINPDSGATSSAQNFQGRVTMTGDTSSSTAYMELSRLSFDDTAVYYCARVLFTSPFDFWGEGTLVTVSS VL: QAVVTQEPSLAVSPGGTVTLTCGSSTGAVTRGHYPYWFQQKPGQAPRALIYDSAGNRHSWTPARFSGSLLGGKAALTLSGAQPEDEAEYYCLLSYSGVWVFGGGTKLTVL
Output: 4.44

Input: What does the data say about its log10 Trimeric HA Binding: RLU? Entry: TCN-523 (5248_A17) (antibody, V domains shown) VH: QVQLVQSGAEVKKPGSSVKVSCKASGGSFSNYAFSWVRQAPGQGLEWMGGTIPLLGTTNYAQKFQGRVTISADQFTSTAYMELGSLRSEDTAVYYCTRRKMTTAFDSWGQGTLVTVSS VL: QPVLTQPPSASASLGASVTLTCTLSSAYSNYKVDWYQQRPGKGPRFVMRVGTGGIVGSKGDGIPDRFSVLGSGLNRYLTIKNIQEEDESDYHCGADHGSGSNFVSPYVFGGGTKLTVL
Output: 4.34

Input: What does the data say about its log10 Trimeric HA Binding: RLU? Entry: TCN-550 (5096_F06) (antibody, V domains shown) VH: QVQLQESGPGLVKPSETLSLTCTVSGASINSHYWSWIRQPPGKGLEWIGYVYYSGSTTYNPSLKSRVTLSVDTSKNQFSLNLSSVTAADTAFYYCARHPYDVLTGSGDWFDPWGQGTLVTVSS VL: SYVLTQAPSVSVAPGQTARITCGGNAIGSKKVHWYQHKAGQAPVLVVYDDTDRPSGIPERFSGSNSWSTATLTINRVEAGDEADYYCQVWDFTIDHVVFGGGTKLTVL
Output: 2.86

Input: What does the data say about its log10 Trimeric HA Binding: RLU? Entry: TCN-552 (5249_I23) (antibody, V domains shown) VH: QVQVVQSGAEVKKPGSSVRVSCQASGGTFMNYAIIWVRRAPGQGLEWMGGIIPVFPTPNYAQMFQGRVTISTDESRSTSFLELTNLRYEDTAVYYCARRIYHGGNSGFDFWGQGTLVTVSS VL: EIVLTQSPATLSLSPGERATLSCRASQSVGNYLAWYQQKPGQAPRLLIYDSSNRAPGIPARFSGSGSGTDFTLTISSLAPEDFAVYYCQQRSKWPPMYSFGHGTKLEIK
Output: 4.72

Input: What does the data say about its log10 Trimeric HA Binding: RLU? Entry: TCN-547 (5092_F11) (antibody, V domains shown) VH: QVQLQESGPGLVKPSQTLSLTCTVSGDSISSVDHYWSWIRQHPVKGLEWIGFMYYSASTYYNPSLKSRVTISTDTSKNQFSLRLSSVTAADTAVYYCARGTCAGDCSLHYYYYGLDVWGQGRTVTVSS VL: DIQMTQSPSSLSASVGDRVTITCRASQSISSYLNWYQHKPGKAPKVLMYAVSILQSGVPSRFSGSGSGADFTLTISSLQPEDFATYYCQQSYSSPLTFGGGTKVEIK
Output: 3.13

Input: What does the data say about its log10 Trimeric HA Binding: RLU? Entry: TCN-554 (5277_M05) (antibody, V domains shown) VH: QVQLVQSGADLKKPGASVKVSCKASGYTFTDYYIHWVRQAPGQGLEWMGWINPESGDTKYAQKFQGRVTMTRDTSITTAYMELGRLRSDDTAVYYCARDVSTTWSWFAPWGQGTLVTVSS VL: DIVMTQSPDSLAVSLGERATINCRSSQSIFHNSNNENYLAWYQQKPGQPPKLLIYWASTRESGVPDRFSGSGSGTDFTLTISSLQAEDVAVYFCQQYYNAPLTFGGGTKVEIK
Output: 3.42

Input: What does the data say about its log10 Trimeric HA Binding: RLU? Entry: TCN-558 (5248_H10b) (antibody, V domains shown) VH: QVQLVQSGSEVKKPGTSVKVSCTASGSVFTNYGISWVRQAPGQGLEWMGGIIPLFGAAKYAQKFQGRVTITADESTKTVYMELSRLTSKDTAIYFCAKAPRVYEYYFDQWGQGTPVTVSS VL: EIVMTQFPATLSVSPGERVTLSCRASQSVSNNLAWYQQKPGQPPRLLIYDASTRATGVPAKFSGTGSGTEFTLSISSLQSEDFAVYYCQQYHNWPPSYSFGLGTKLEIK
Output: 4.54
